Target: T1, human PD-L1 on CHO-K1 cells overexpressing human PD-L1 (human, UniProt Q9NZQ7 19-290)
T1 construct: whole, on cells; also called CHO-K1/hPD-L1; CHO-K1-hPD-L1
T1 sequence (Q9NZQ7 19-290): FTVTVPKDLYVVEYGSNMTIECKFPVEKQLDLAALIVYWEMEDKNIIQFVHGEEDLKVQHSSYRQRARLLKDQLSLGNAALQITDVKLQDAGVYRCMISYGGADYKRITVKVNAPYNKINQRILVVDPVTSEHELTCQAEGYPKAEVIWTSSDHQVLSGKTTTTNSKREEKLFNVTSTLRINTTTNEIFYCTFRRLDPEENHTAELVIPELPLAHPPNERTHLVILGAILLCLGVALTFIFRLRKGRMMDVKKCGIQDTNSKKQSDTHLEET
Assay: flow cytometry on CHO-K1 cells overexpressing human PD-L1 (CHO-K1/hPD-L1)
I'd appreciate it if you could supply pEC50 values for the items below.
Numbers only, as −log10 of the molar value.

PR001061 (antibody, human IgG1, V domains shown, Heavy-chain-only antibody (HCAb): human VH fused to human IgG1 Fc; no light chain; also called anti-PD-L1 HCAb antibody) VH: EVQLLESGGGVVQPGRSLRLSCAASGFNFSSYGMYWVRQAPGKGQEWVAIIWYDGSRKHYADSVKGRFTISRDNSKNTLYLEMNSLRAEDTAMYYCAKNRAIFGVVPDASDIRGQGTMVTVSS	8.64
PR001065 (antibody, human IgG1, V domains shown, Heavy-chain-only antibody (HCAb): human VH fused to human IgG1 Fc; no light chain; also called anti-PD-L1 HCAb antibody) VH: EVQLVESGGGVVQPGRSLRLSCAASGFNFSSYGMYWVRQAPGKGQEWVAIIWYDGTKKHYADSVKGRFTISRDNSKNTLYLEMNSLRVEDTAVYYCAKNRAIFGVVPDASDIRGQGTMVTVSS	8.57
PR000960 (antibody, human IgG1, V domains shown, Heavy-chain-only antibody (HCAb): human VH fused to human IgG1 Fc; no light chain; also called anti-PD-L1 HCAb antibody) VH: QVQLVESGGGVVQPGMSLRLSCAASGFNFSNYGMYWVRQAPGKGQEWVAIIWYDGTKKHYADSVKGRFTISRDNSKNTLYLEMNSLRVEDTAVYYCAKNRAIFGVVPDASDIRGQGTMVTVSS	8.52

Noted for PR001058 (antibody, human IgG1, V domains shown, Heavy-chain-only antibody (HCAb): human VH fused to human IgG1 Fc; no light chain; also called anti-PD-L1 HCAb antibody) VH: EVQLVESGGGVVQPGRSLRLSCAASGFTFSSYGMYWVRQAPGKGQEWVAIIWYDGTKKHYADSVKGRFTISRDNSKNTLYLEMNSLRVEDTAVYYCAKNRAIFGVVPDASDIRGQGTMVTVSS : its pEC50 reads 8.48
